assay: protein stability index of a GFP-peptide fusion (yeast GPS) (PSI 1-4); higher = more stable; sorted into four equal gates, so the index is relative within each strain
conditionDescription: ubr1∆
Label 1 when protein stability index is at or above 2; anything below gets 0.

Solved cases below.
> print(dat)
                       sequencetext  classification
1          ESLKNLNESRSQHKKIL [SMC3]               1
2          FDENIARDIISHNFQNA [PCI8]               1
3          DNETKAMLINLILRDFL [RPN3]               1
4          PINLPPQIAQLPLATQQ [SNF5]               1
5          NEISRNGTMINEVIDKL [PCI8]               1
6          GYCDDIAAMVAQKCGWT [SIR2]               0
7         IFKGIGGNFKDLSTLVH [GAL11]               0
8  MENILQRCKSNAISLQL [YIL149C/MLP2]               0

Has EKVFNAYPAAREQFLNA [FAS1] a recorded protein stability index greater than or equal to 2?
1

Has TWNGSPFDNSTEEKCKN [YJL039C/NUP192] a recorded protein stability index greater than or equal to 2?
1

Has NVTMIDDLIHFTLKQWN [COR1] a recorded protein stability index greater than or equal to 2?
1

Has LHANGASFFFMVMFMHM [COB] a recorded protein stability index greater than or equal to 2?
0

Has TKTILSGTDGSTIGILL [SRP72] a recorded protein stability index greater than or equal to 2?
1

----------
assay: protein stability index of a GFP-peptide fusion (yeast GPS) (PSI 1-4); higher = more stable; sorted into four equal gates, so the index is relative within each strain
conditionDescription: ubr1∆
Label T when protein stability index is at or above 2; anything below gets F.

Solved cases below.
> print(dat)
                sequencetext  classification
1  LTCLPVPPPPVRPSISF [RPO21]               T
2  ALLTKRLYPHWDHPVIA [CSN12]               F
3   EQKLVDLLKFENISLAE [BRR2]               T
4  LLLDNGFNMKKITTSTE [SRP68]               T

Attention now turns to another entry.
Has LHVLPTLNSRALSGLYY [SNM1] a recorded protein stability index greater than or equal to 2?
T

----------
assay: protein stability index of a GFP-peptide fusion (yeast GPS) (PSI 1-4); higher = more stable; sorted into four equal gates, so the index is relative within each strain
conditionDescription: pdr5∆
Field: protein stability index. Provide a value for each of the sequences that follow.
One number for each entry.

> print(dat)
                sequencetext  reading
1   ATPIPEEVQQAQTEIKL [RPS5]     2.89
2  HFKKPDITVHGEQIIVH [RRP45]     1.37
3   NHNQFECKGCDNKIDIY [RPB2]     3.19
4   KITDKEDLLHYIEEKHP [POP4]      3.3

Would you be so kind as to report protein stability index for each listed record?
1. AGKFELLDRILPKLKAT [SNF2]
2. LRSIYHQFHDILEEKTD [NSL1]
3. PKNLSTPSTSSNGEFIP [CSE2]
4. LKLENLHVVSKSSIEKD [SIN4]
5. QDISSSTRVEFEKLYSD [FAS2]
6. SNISDEKSRISERDSKD [YMR129W/POM152]
7. VIVPQIVLDEVRNKSYP [DIS3]

1: 2.05; 2: 2.07; 3: 2.87; 4: 2.74; 5: 3.05; 6: 3.12; 7: 2.33

Would you be so kind as to report protein stability index for each listed record?
1. GNGEGLGGDSDEANIEI [BRN1]
2. PPLTYKNDTKILVLALE [PRP8]
3. ETQLKVVTRSKEAFEEE [SMC1]
4. EEEATMTTSAVSPTVGK [YIL149C/MLP2]
5. AYNKKSTISAREIQTAV [HTB1]
6. KSQNTALPSTHKVTQKK [SIR4]

1: 3.48; 2: 2.48; 3: 3.25; 4: 3.3; 5: 3.03; 6: 2.9

Would you be so kind as to report protein stability index for each listed record?
1. FSFGAKPAEKNNNETSK [YJL041W/NSP1]
2. LYPDSSSFKKNLLKFIT [RPN3]
3. NFPVRQWSIEIVLLDDE [TAF14]
4. TDAGVLALKLELLDFLT [YJL039C/NUP192]

1: 2.52; 2: 1.26; 3: 1.5; 4: 2.98
